src = patent US10738062B2

Tested on: HCV replicon 1A
Assay: Cell-based HCV replicon assay (Replicon Assay A), replicon 1A
Parameters: species or system Hepatitis C virus
Details: replicon RNA by real time PCR, day 3
Parameter: EC50. Scope: all listed entries.
Write the figure, then the unit, nothing else.

molecule	property name	value measured
COC(=O)NC(C(=O)N1CCC[C@H]1c1ncc(-c2ccc3c(c2)cc2n3C(c3ccc4c(c3)OC(C)CC4)Oc3cc(-c4cnc([C@@H]5CCCN5C(=O)[C@@H](NC(=O)OC)C(C)C)[nH]4)cc(F)c3-2)[nH]1)C1C[C@@H](C)O[C@@H](C)C1 (single isomer, unassigned) [Compound 59]	EC50	3.2 pM

Give the measured EC50 of COC(=O)NC(C(=O)N1CCC[C@H]1c1ncc(-c2cc(F)c3c(c2)OC(c2ccc4c(c2)OCCC4)n2c-3cc3cc(-c4cnc([C@@H]5CCCN5C(=O)[C@@H](NC(=O)OC)C5CCOCC5)[nH]4)ccc32)[nH]1)C(C)(C)F (single isomer, unassigned) [Compound 87] .
2.3 pM
